Hey, just so you know, these numbers are from paper PMC5108454.

assayed_target: Sdh (succinate dehydrogenase; complex II) (Mus musculus, UniProt Q8K2B3)
Sequence (Q8K2B3 43-664): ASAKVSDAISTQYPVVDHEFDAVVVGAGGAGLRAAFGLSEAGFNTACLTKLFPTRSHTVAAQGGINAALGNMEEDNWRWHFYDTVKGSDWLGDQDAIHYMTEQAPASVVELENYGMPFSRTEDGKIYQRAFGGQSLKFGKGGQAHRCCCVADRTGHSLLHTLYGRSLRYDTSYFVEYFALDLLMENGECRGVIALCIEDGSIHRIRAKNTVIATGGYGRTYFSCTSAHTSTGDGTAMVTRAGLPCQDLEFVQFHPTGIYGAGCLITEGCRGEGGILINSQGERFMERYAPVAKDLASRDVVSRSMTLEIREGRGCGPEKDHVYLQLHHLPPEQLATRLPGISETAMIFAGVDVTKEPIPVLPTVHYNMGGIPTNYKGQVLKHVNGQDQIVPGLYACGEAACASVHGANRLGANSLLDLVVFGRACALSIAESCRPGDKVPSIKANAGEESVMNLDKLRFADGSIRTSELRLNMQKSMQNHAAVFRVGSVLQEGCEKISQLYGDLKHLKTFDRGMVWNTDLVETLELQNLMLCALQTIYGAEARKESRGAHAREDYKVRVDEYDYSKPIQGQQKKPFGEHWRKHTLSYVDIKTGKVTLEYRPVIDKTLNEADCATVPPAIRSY
Sequence (Q9CQA3 31-282 partner): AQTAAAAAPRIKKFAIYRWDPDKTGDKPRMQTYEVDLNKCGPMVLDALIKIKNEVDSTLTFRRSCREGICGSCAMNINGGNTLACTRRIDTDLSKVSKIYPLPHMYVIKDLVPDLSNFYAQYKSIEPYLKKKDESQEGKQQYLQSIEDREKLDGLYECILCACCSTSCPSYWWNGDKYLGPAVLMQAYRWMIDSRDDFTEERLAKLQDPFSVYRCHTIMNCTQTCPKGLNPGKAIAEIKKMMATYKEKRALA
Sequence (Q9CZB0 30-169 partner): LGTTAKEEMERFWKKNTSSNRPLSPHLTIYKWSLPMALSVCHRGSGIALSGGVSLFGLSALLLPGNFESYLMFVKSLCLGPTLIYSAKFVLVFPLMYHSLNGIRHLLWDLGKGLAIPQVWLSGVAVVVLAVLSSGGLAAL
Sequence (Q9CXV1 57-159 partner): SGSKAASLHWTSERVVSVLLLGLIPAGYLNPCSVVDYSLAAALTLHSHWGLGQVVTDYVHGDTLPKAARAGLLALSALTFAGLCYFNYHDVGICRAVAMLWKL
protocol_description: complex II enzyme activity microplate assay, Dixon plot
Format: biochemical
property_measured: Ki (µM)
Your answer should be a plain number; it is taken to be in µM.

query: Item C=C(CC(=O)O)C(=O)O [itaconate] with Sdh (succinate dehydrogenase; complex II) (Mus musculus, UniProt Q8K2B3) - Ki?
result: 220
